The reported numbers originate from ChEMBL document CHEMBL5316322.

Listed here: items and their measured fraction unbound.
# Assay Overview: Plasma protein binding in human
# Type: ADME, cell-free
# Assay Context: read-out: PPB
Readout Label: fraction unbound

Substance Smiles	Readout Label	Reported Measurement
NC(=O)c1cnc(Nc2ccccn2)cc1Nc1ccccc1Cl	fraction unbound	< 0.01
Cc1cccc(Nc2cc(Nc3ccccc3Cl)c(C(N)=O)cn2)n1	fraction unbound	< 0.01

====

# Tested Target: JAK3/JAK1 (Homo sapiens, UniProt P23458+P52333)
# Type: tissue-based, Blood
# Description: Inhibition of JAK1/JAK3 in human blood assessed as reduction of IL-2 stimulated STAT phosphorylation preincubated for 30 mins followed by IL-2 stimulation and measured after 15 mins by flow cytometry method
pIC50: −log10 of the molar value.
Listed here: items and their measured pIC50.
Readout Label: pIC50

Substance Smiles	Tested Target	Reported Measurement
NC(=O)c1cnc(Nc2ccccn2)cc1Nc1ccccc1Cl	JAK3/JAK1 (Homo sapiens, UniProt P23458+P52333)	6.25
Cc1cccc(Nc2cc(Nc3ccccc3Cl)c(C(N)=O)cn2)n1	JAK3/JAK1 (Homo sapiens, UniProt P23458+P52333)	5.63
COc1ccccc1Nc1cc(Nc2cccc(C)n2)ncc1C(N)=O	JAK3/JAK1 (Homo sapiens, UniProt P23458+P52333)	6.00
COc1ccccc1Nc1cc(Nc2ccccn2)ncc1C(N)=O	JAK3/JAK1 (Homo sapiens, UniProt P23458+P52333)	6.47
COc1ccccc1Nc1cc(Nc2cccnn2)ncc1C(N)=O	JAK3/JAK1 (Homo sapiens, UniProt P23458+P52333)	6.31

====

# Tested Target: JAK1/TYK2 (Homo sapiens, UniProt P23458+P29597)
Please assign class 0 whenever IC50 is at or above 80 nM, and class 1 whenever it is below.

Substance Smiles	Group
COc1ccccc1Nc1cc(Nc2cccc(C)n2)ncc1C(N)=O	class 1
COc1ccccc1Nc1cc(Nc2ccccn2)ncc1C(N)=O	class 1
NC(=O)c1cnc(Nc2ccccn2)cc1Nc1ccccc1Cl	class 0
COc1ccccc1Nc1cc(Nc2cccnn2)ncc1C(N)=O	class 1
Cc1cccc(Nc2cc(Nc3ccccc3Cl)c(C(N)=O)cn2)n1	class 0

====

# Assay Overview: Drug excretion in iv dosed bile duct cannulated rat bile assessed as unchanged drug
# Type: ADME, organism-based
# Assay Context: read-out: Drug excretion

Substance Smiles	dose excreted
Cc1cccc(Nc2cc(Nc3ccccc3Cl)c(C(N)=O)cn2)n1	< 1%

====

# Assay Overview: Drug uptake in topically administered human skin at 1 mm of depth by MALDI-IMS analysis
# Assay type: ADME, tissue-based, Skin of body
# Assay Context: topical or ocular, route top, read-out: Drug uptake

Substance Smiles	Units Symbol	concentration at 1000 µM
Cc1cccc(Nc2cc(Nc3ccccc3Cl)c(C(N)=O)cn2)n1	nM	1680

====

pIC50: −log10 of the molar value.
Let's go through some pIC50 measurements on Non-receptor tyrosine-protein kinase TYK2 (Homo sapiens, UniProt P29597) together.
Sequence (P29597 whole entry): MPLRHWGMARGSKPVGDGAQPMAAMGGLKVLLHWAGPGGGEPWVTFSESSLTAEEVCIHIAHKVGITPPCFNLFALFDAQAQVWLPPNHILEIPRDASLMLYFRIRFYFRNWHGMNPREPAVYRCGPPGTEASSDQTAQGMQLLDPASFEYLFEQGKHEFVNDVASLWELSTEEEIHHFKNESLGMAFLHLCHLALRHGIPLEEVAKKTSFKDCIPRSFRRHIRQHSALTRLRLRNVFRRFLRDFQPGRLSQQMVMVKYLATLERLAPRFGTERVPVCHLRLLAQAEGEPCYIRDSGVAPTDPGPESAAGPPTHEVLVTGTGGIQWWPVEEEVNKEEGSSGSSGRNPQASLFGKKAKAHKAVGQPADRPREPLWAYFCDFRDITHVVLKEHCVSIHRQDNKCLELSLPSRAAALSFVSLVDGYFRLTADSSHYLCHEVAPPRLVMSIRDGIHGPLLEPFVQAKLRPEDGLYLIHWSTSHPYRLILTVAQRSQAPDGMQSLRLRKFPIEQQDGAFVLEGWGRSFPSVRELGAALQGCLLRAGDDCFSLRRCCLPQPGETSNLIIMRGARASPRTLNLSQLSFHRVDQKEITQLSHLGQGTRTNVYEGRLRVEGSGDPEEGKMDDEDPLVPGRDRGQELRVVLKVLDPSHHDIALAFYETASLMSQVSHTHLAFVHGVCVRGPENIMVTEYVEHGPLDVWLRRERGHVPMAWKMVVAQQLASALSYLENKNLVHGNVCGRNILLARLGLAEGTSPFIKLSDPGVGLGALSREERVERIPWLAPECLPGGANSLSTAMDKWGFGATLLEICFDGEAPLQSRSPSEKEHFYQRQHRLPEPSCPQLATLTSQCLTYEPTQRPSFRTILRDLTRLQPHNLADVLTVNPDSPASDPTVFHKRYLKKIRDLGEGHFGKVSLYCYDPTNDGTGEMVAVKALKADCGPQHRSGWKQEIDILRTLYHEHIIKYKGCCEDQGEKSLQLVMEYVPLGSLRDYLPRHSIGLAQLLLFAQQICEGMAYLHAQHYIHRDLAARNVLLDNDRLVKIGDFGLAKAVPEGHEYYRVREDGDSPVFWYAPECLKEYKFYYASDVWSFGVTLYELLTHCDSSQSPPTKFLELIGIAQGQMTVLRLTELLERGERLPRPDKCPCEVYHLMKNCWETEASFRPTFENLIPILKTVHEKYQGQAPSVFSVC
Readout Label: pIC50

Substance Smiles	Reported Measurement
NC(=O)c1cnc(Nc2ccccn2)cc1Nc1ccccc1Cl	7.96
COc1ccccc1Nc1cc(Nc2cccc(C)n2)ncc1C(N)=O	7.82
COc1ccccc1Nc1cc(Nc2ccccn2)ncc1C(N)=O	8.22
Cc1cccc(Nc2cc(Nc3ccccc3Cl)c(C(N)=O)cn2)n1	7.30

====

Let's go through some IC50 measurements on Tyrosine-protein kinase JAK2 (Homo sapiens) together.
Sequence (O60674 whole entry): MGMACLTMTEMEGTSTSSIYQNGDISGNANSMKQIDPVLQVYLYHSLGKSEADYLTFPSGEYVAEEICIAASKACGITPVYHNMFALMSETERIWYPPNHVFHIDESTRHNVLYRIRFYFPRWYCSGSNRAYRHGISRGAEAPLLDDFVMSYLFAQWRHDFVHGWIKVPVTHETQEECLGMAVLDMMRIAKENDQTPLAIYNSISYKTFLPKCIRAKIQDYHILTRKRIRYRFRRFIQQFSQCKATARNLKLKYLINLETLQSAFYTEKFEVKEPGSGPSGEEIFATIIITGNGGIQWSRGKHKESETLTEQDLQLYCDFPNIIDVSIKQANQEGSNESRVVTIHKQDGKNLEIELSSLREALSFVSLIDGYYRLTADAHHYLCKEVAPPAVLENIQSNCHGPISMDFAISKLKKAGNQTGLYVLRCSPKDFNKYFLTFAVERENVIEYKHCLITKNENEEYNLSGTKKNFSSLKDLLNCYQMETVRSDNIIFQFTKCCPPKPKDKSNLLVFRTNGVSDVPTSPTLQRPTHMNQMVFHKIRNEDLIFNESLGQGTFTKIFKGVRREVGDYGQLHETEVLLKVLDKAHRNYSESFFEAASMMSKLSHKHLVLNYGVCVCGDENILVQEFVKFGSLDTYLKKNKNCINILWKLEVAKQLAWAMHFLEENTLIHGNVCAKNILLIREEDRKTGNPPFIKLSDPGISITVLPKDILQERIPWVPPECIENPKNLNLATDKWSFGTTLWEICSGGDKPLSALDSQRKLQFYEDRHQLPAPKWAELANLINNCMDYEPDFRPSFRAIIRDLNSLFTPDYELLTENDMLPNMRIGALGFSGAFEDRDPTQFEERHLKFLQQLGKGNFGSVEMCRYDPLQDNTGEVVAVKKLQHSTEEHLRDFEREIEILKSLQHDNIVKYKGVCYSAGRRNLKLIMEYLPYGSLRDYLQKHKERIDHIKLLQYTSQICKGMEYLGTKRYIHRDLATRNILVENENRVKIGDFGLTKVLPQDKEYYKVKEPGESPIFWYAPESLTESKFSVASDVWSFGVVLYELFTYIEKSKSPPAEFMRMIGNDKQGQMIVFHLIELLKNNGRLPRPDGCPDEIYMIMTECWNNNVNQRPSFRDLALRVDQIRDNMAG
Readout Label: IC50 (nM)

Substance Smiles	Tested Target	Reported Measurement
Cc1cccc(Nc2cc(Nc3ccccc3Cl)c(C(N)=O)cn2)n1	Tyrosine-protein kinase JAK2 (Homo sapiens)	48
COc1ccccc1Nc1cc(Nc2cccnn2)ncc1C(N)=O	Tyrosine-protein kinase JAK2 (Homo sapiens)	29
COc1ccccc1Nc1cc(Nc2ccccn2)ncc1C(N)=O	Tyrosine-protein kinase JAK2 (Homo sapiens)	8

====

# Assay Overview: Drug concentration in topically administered human skin epidermis by MALDI-IMS analysis
# Format: ADME, tissue-based
# Assay Context: topical_or_ocular, route top, read-out: Drug uptake

Substance Smiles	Units Symbol	concentration
Cc1cccc(Nc2cc(Nc3ccccc3Cl)c(C(N)=O)cn2)n1	µM	13

====

# Tested Target: Tyrosine-protein kinase JAK3 (Homo sapiens, UniProt P52333)
# Sequence (P52333 whole entry): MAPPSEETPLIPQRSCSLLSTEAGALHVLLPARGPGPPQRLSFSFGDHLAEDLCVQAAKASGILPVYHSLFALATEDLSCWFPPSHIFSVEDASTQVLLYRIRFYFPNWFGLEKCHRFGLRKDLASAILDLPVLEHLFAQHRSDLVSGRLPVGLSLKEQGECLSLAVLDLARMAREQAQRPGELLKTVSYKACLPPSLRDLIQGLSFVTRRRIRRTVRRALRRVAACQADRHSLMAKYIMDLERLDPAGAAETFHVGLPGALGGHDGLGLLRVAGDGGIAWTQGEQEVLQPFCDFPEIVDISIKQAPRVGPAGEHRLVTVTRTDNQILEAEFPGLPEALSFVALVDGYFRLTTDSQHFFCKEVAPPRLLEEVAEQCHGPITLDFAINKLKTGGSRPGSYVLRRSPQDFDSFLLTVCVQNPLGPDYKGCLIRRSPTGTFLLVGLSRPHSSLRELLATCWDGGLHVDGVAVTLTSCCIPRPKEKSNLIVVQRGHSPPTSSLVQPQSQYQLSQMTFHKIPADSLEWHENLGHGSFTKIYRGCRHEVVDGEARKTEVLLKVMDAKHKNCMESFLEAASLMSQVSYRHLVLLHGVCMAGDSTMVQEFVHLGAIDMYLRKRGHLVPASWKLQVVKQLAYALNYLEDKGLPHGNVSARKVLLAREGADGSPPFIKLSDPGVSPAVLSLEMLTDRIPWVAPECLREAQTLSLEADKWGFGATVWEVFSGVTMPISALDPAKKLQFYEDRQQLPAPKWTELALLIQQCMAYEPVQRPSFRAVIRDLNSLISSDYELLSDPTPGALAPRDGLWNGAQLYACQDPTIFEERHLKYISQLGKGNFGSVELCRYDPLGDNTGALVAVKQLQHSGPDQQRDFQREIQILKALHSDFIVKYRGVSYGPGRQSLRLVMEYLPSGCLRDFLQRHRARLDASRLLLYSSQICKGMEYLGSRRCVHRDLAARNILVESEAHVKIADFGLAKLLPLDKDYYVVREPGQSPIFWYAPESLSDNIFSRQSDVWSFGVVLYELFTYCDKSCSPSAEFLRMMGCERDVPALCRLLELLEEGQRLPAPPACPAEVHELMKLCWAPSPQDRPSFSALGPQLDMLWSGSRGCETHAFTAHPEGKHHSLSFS
pIC50: −log10 of the molar value.
Readout Label: pIC50

Substance Smiles	Reported Measurement
NC(=O)c1cnc(Nc2ccccn2)cc1Nc1ccccc1Cl	8.00
COc1ccccc1Nc1cc(Nc2ccccn2)ncc1C(N)=O	7.96
COc1ccccc1Nc1cc(Nc2cccnn2)ncc1C(N)=O	7.41

====

# Assay Overview: Drug excretion in iv dosed bile duct cannulated rat urine assessed as unchanged drug
# Format: ADME, organism-based
# Assay Context: read-out: Drug excretion

Substance Smiles	dose excreted [%]
Cc1cccc(Nc2cc(Nc3ccccc3Cl)c(C(N)=O)cn2)n1	1.3

====

# Assay Overview: Aqueous solubility of the compound at pH 6.8
# Assay type: physicochemical

Substance Smiles	Units Symbol	solubility
Cc1cccc(Nc2cc(Nc3ccccc3Cl)c(C(N)=O)cn2)n1	µM	0.2

====

# Assay Overview: Half life in rat
# Format: ADME
# Assay Context: in vivo
Readout Label: half-life (min)

Substance Smiles	Units Symbol	Reported Measurement
Cc1cccc(Nc2cc(Nc3ccccc3Cl)c(C(N)=O)cn2)n1	min	30

====

Let's go through some IC50 measurements on Tyrosine-protein kinase JAK1 (Homo sapiens) together.
Sequence (P23458 whole entry): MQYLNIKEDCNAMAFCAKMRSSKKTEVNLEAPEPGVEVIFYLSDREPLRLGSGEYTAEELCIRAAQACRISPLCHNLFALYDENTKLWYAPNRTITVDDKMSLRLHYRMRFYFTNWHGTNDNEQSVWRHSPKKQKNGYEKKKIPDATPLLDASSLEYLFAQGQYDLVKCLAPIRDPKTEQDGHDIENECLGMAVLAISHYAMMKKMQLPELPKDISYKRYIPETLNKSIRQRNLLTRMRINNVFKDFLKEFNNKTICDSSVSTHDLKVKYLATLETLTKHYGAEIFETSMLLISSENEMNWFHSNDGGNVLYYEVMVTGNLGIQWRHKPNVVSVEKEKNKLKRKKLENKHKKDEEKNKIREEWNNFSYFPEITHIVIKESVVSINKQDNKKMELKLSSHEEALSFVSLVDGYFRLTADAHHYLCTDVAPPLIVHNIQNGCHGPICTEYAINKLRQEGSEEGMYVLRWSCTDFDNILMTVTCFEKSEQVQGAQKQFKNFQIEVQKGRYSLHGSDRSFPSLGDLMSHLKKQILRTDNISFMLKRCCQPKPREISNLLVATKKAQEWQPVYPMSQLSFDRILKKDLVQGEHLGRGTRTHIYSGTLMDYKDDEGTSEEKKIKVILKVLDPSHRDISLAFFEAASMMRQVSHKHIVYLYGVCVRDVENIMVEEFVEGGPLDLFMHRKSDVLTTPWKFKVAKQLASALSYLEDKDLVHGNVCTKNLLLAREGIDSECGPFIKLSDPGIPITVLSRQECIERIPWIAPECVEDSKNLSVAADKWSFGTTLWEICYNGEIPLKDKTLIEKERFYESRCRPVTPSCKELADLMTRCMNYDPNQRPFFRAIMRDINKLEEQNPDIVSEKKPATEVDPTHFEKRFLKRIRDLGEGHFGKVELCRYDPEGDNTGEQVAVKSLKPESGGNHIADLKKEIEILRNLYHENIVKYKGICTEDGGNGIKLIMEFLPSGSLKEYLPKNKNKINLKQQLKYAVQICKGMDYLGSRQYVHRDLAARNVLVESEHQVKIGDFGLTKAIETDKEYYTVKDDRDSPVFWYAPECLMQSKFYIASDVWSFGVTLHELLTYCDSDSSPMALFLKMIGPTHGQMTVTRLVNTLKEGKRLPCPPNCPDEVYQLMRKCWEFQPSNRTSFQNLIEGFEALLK

Substance Smiles	Units Symbol	IC50
COc1ccccc1Nc1cc(Nc2cccnn2)ncc1C(N)=O	nM	29
COc1ccccc1Nc1cc(Nc2ccccn2)ncc1C(N)=O	nM	9

====

Listed here: items and their measured logD.
# Assay Overview: Lipophilicity, log D of the compound
# Type: physicochemical
# Assay Context: octanol/water
Readout Label: logD

Substance Smiles	Readout Label	Reported Measurement
COc1ccccc1Nc1cc(Nc2cccnn2)ncc1C(N)=O	logD	2.4
COc1ccccc1Nc1cc(Nc2ccccn2)ncc1C(N)=O	logD	3.4
Cc1cccc(Nc2cc(Nc3ccccc3Cl)c(C(N)=O)cn2)n1	logD	4.3
COc1ccccc1Nc1cc(Nc2cccc(C)n2)ncc1C(N)=O	logD	3.7
NC(=O)c1cnc(Nc2ccccn2)cc1Nc1ccccc1Cl	logD	3.7

====

# Tested Target: JAK3/JAK1 (Homo sapiens, UniProt P23458+P52333)
# Type: cell-based, M07E
# Description: Inhibition of JAK1/JAK3 in human M07E cells assessed as reduction of IL-15 stimulated STAT phosphorylation preincubated for 30 mins followed by IL-15 stimulation and measured after 15 mins by flow cytometry analysis
pIC50: −log10 of the molar value.
Listed here: items and their measured pIC50.
Readout Label: pIC50

Substance Smiles	Readout Label	Reported Measurement
Cc1cccc(Nc2cc(Nc3ccccc3Cl)c(C(N)=O)cn2)n1	pIC50	7.27
COc1ccccc1Nc1cc(Nc2ccccn2)ncc1C(N)=O	pIC50	7.35
NC(=O)c1cnc(Nc2ccccn2)cc1Nc1ccccc1Cl	pIC50	7.39
COc1ccccc1Nc1cc(Nc2cccnn2)ncc1C(N)=O	pIC50	7.18
COc1ccccc1Nc1cc(Nc2cccc(C)n2)ncc1C(N)=O	pIC50	7.07

====

# Assay Overview: Half life in minipig
# Type: ADME, Sus scrofa domesticus
# Assay Context: pig, in vivo

Substance Smiles	half-life
Cc1cccc(Nc2cc(Nc3ccccc3Cl)c(C(N)=O)cn2)n1	1 h
